Measured pIC50 by item
Biological target: human α1G T-type channels (Homo sapiens, UniProt O43497)
Construct: expressed in transfected cells
Experiment: T-type calcium channel block, patch clamp in HEK cell lines
Assay type: cell-based
Details: −80 mV (inactivation protocol, voltage-dependent block); read-out: IC50 - 80 mV
When answering, recall that pIC50 equals minus log10 of the concentration in mol/L, and write that number alone.

Solved entries:
Query: Look up pIC50 for this compound: O=C(CN(c1ccccc1)c1ccccc1)N1CCN(C(c2ccccc2)c2ccc(Cl)cc2Cl)CC1 (centres unmarked) [Compound 3]
Result: 5.22

Query: Param item: O=C(CN1CCN(C(c2ccccc2)c2ccccc2Cl)CC1)N(c1ccccc1)c1ccccc1 (centres unmarked) [Compound 21]
Result: 7.47

Query: Param item: O=C(CN1CCN(C(c2ccccc2)c2cccc(Cl)c2)CC1)N(c1ccccc1)c1ccccc1 (centres unmarked) [Compound 20]
Result: 7.48

Query: Param item: CN1CCCC(CN2CCN(C(=O)CN(c3ccccc3)c3ccccc3)CC2)C1 (centres unmarked) [Compound 10]
Result: 5.70

Query: Param item: CN(C)CCCN1CCN(CC(=O)N(c2ccccc2)c2ccccc2)CC1 [Compound 26]
Result: 6.00

Further cases:
Query: Look up pIC50 for this compound: Cc1ccc(C(c2ccccc2)N2CCN(CC(=O)N(c3ccccc3)c3ccccc3)CC2)c(C)c1 (centres unmarked) [Compound 18]
Result: 7.08

Query: Param item: O=C(CN(c1ccccc1)c1ccccc1)N1CCN(C(c2ccccc2)c2cccc(Cl)c2Cl)CC1 (centres unmarked) [Compound 7]
Result: 6.00

Query: Param item: O=C(CN1CCN(C(c2ccccc2)c2cccc(Cl)c2Cl)CC1)N(c1ccccc1)c1ccccc1 (centres unmarked) [Compound 22]
Result: 7.80

Query: Param item: CN1CCC(CN2CCN(CC(=O)N(c3ccccc3)c3ccccc3)CC2)CC1 [Compound 25]
Result: 5.43

Query: Param item: Cc1ccc(C(c2ccccc2)N2CCN(C(=O)CN(c3ccccc3)c3ccccc3)CC2)c(C)c1 (centres unmarked) [Compound 2]
Result: 6.35

Query: Param item: O=C(CN(c1ccccc1)c1ccccc1)N1CCN(C(c2ccccc2)c2ccccc2Cl)CC1 (centres unmarked) [Compound 6]
Result: 5.92

Query: Param item: O=C(CN1CCN(C(c2ccccc2)c2ccccc2)CC1)N(c1ccccc1)c1ccccc1 [Compound 16]
Result: 5.89

Query: Param item: O=C(CN(c1ccccc1)c1ccccc1)N1CCN(C(c2ccccc2)c2ccc(Cl)cc2)CC1 (centres unmarked) [Compound 4]
Result: 6.13

Query: Param item: O=C(CN(c1ccccc1)c1ccccc1)N1CCN(C(c2ccccc2)c2cccc(Cl)c2)CC1 (centres unmarked) [Compound 5]
Result: 6.10

Query: Param item: O=C(CN1CCN(C(c2ccccc2)c2ccc(Cl)cc2Cl)CC1)N(c1ccccc1)c1ccccc1 (centres unmarked) [Compound 17]
Result: 7.54

Query: Param item: O=C(CN(c1ccccc1)c1ccccc1)N1CCN(C(c2ccccc2)c2ccccc2)CC1 [Compound 1]
Result: 6.29

Query: Param item: O=C(CN1CCN(C(c2ccccc2)c2ccc(Cl)cc2)CC1)N(c1ccccc1)c1ccccc1 (centres unmarked) [Compound 19]
Result: 7.66

###

Target: human α1G T-type channels (Homo sapiens, UniProt O43497)
Construct: expressed in transfected cells
Assay: T-type calcium channel block, patch clamp in HEK cell lines
Type: cell-based
Settings: −100 mV pre-pulse (non-inactivating protocol, resting block); read-out: IC50 - 100 mV
Protocol: Standard patch-clamp techniques were employed to identify blockers of T-type currents. Briefly, previously described HEK cell lines stably expressing human α1G T-type channels were used for all the recordings (passage #: 4-20, 37° C., 5% CO2). To obtain T-type currents, plastic dishes containing semi-confluent cells were positioned on the stage of a ZEISS AXIOVERT S100 microscope after replacing the culture medium with external solution (see below). […]
measured metric: pIC50
When answering, recall that pIC50 equals minus log10 of the concentration in mol/L, and write that number alone.

Solved entries:
Query: Look up pIC50 for this compound: O=C(CN1CCN(C(c2ccccc2)c2cccc(Cl)c2Cl)CC1)N(c1ccccc1)c1ccccc1 (stereo not drawn)
Result: 7.09

Query: Param item: Cc1ccc(C(c2ccccc2)N2CCN(C(=O)CN(c3ccccc3)c3ccccc3)CC2)c(C)c1 (stereo not drawn)
Result: 5.70

Query: Param item: O=C(CN(c1ccccc1)c1ccccc1)N1CCN(C(c2ccccc2)c2cccc(Cl)c2Cl)CC1 (stereo not drawn)
Result: 6.00

Query: Param item: O=C(CN1CCN(C(c2ccccc2)c2ccccc2Cl)CC1)N(c1ccccc1)c1ccccc1 (stereo not drawn)
Result: 6.87

Query: Param item: O=C(CN(c1ccccc1)c1ccccc1)N1CCN(C(c2ccccc2)c2ccccc2)CC1
Result: 5.87

Further cases:
Query: Look up pIC50 for this compound: O=C(CN1CCN(C(c2ccccc2)c2ccc(Cl)cc2)CC1)N(c1ccccc1)c1ccccc1 (stereo not drawn)
Result: 7.14

Query: Param item: Cc1ccc(C(c2ccccc2)N2CCN(CC(=O)N(c3ccccc3)c3ccccc3)CC2)c(C)c1 (stereo not drawn)
Result: 6.64

Query: Param item: O=C(CN1CCN(C(c2ccccc2)c2ccc(Cl)cc2Cl)CC1)N(c1ccccc1)c1ccccc1 (stereo not drawn)
Result: 6.93

Query: Param item: CN1CCCC(CN2CCN(C(=O)CN(c3ccccc3)c3ccccc3)CC2)C1 (stereo not drawn)
Result: 5.00

Query: Param item: O=C(CN1CCN(C(c2ccccc2)c2cccc(Cl)c2)CC1)N(c1ccccc1)c1ccccc1 (stereo not drawn)
Result: 6.94

Query: Param item: CN1CCC(CN2CCN(CC(=O)N(c3ccccc3)c3ccccc3)CC2)CC1
Result: 5.24

Query: Param item: O=C(CN(c1ccccc1)c1ccccc1)N1CCN(C(c2ccccc2)c2ccc(Cl)cc2)CC1 (stereo not drawn)
Result: 5.42

###

Measured IC50 by item
Target: rat brain N-type calcium channel subunits (α1B+α2δ+β1b cDNA subunits) (Rattus norvegicus, UniProt Q02294)
Construct: expressed in transfected cells; host or cells: HEK 293
Sequence (Q02294 whole entry): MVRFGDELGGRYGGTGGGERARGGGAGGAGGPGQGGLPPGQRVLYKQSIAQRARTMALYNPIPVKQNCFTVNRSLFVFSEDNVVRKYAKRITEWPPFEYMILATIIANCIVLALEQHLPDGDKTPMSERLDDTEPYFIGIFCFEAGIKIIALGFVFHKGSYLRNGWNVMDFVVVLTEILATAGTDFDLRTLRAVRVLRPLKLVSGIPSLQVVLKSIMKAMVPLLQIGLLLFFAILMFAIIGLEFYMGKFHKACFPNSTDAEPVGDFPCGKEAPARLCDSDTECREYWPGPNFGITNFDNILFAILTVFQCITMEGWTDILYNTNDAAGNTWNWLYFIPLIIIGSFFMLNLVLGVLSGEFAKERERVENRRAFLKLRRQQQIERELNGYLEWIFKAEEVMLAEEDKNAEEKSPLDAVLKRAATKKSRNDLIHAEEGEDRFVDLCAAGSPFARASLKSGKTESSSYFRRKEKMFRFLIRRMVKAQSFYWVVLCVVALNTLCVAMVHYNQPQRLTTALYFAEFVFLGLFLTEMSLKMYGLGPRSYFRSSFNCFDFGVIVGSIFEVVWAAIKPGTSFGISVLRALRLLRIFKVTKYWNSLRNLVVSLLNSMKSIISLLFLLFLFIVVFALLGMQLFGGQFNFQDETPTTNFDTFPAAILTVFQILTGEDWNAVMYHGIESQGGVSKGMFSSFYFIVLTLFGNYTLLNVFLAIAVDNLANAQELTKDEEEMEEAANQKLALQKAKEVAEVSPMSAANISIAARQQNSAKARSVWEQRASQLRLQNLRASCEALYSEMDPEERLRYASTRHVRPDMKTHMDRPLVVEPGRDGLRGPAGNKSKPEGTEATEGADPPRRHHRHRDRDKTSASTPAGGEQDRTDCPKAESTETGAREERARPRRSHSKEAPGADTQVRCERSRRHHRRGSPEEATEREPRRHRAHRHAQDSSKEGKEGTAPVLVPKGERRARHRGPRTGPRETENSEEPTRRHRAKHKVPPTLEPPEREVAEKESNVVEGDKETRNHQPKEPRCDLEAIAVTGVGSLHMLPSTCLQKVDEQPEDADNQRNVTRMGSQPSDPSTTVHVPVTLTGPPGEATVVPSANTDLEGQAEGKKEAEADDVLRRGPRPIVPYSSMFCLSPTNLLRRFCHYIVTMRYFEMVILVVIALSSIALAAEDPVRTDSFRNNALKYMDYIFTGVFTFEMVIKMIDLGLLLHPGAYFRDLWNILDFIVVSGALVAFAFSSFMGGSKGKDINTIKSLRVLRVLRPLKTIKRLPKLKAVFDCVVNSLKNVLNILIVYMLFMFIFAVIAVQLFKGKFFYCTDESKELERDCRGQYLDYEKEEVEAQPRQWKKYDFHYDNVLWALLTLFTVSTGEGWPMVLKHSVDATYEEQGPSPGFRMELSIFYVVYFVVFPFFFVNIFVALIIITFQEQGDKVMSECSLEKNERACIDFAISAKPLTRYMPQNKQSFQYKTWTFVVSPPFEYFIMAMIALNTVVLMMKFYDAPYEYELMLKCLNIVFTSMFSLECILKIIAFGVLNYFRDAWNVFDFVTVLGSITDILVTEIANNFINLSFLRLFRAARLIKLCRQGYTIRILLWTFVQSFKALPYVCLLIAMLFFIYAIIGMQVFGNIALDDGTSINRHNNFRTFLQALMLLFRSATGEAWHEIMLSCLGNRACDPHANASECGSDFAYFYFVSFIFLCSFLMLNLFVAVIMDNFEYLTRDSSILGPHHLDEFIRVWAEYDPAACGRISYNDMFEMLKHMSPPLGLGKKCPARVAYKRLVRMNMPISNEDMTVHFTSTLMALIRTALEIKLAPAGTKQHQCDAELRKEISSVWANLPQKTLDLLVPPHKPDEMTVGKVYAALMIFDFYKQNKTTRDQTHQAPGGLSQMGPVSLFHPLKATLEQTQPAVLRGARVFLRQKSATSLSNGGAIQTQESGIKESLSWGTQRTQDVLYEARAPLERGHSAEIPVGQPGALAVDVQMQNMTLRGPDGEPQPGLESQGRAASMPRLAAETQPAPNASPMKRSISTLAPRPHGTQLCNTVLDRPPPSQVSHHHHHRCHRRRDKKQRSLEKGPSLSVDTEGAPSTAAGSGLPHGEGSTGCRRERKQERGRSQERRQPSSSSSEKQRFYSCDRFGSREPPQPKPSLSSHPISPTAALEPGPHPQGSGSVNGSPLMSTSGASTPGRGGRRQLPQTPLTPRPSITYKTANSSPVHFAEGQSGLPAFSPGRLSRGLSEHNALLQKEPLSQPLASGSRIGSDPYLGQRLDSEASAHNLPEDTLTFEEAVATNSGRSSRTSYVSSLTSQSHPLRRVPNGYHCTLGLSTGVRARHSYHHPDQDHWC
Sequence (P54290 25-944 partner limits assumed): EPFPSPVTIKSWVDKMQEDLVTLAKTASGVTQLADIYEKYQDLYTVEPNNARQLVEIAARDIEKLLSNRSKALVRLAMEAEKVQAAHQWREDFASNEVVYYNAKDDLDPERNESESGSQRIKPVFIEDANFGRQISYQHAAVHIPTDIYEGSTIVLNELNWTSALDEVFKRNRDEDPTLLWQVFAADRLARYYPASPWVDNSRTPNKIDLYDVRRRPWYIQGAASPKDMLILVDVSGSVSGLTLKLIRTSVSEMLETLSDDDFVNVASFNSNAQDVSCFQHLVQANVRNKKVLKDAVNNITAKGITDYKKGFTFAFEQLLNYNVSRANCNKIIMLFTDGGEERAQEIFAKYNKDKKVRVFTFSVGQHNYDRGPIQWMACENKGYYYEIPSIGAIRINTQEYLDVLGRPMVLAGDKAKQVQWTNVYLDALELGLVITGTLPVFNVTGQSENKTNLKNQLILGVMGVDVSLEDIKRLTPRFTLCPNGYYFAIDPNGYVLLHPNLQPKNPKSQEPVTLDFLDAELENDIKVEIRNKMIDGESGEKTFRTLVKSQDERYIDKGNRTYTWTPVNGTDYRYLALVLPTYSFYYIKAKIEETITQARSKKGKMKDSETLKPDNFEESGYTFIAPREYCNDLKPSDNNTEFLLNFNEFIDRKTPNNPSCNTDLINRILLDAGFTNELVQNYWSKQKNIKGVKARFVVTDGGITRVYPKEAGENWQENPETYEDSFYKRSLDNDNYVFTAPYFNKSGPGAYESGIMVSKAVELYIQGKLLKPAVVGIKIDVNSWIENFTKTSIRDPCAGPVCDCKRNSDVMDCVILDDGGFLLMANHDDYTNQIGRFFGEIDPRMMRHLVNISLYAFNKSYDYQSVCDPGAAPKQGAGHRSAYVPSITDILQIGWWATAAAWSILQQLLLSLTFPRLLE
Sequence (P54290 945-1091 partner limits assumed): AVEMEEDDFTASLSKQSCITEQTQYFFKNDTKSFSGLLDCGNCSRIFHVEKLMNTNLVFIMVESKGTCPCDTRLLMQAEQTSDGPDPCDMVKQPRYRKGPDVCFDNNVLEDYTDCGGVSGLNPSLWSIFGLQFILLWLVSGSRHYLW
Sequence (P54283 whole entry partner): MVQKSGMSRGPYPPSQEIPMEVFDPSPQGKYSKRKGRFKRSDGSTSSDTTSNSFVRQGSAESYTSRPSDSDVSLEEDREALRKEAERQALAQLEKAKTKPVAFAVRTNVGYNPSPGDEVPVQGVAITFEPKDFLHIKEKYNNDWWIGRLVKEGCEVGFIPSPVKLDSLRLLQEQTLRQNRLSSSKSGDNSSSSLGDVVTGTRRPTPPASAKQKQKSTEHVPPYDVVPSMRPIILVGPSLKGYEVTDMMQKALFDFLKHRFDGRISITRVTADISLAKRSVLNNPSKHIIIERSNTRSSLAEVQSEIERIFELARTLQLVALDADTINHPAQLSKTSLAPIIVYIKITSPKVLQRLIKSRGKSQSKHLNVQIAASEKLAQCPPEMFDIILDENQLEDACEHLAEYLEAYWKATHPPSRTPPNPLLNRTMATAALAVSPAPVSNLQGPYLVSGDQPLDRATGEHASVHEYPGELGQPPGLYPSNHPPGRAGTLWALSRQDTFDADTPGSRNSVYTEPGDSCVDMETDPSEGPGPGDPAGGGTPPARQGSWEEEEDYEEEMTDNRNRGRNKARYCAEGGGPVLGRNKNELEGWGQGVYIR
Assay: N-type calcium channel block, whole cell patch clamp in transfected HEK 293 cells
Assay type: cell-based
Conditions: pulse frequency 0.2 Hz (frequency dependent block); holding potential −80 mV to +10 mV; read-out: IC50 @ 0.2 Hz
Reply with just the number (in nM).

Query: Look up IC50 for this molecule: CN1CCCC(CN2CCN(C(=O)CN(c3ccccc3)c3ccccc3)CC2)C1 (centres unmarked)
Result: 980

Query: Param item: O=C(CN(c1ccccc1)c1ccccc1)N1CCN(C(c2ccccc2)c2cccc(Cl)c2)CC1 (centres unmarked)
Result: 280

Query: Param item: O=C(CN1CCN(C(c2ccccc2)c2ccc(Cl)cc2Cl)CC1)N(c1ccccc1)c1ccccc1 (centres unmarked)
Result: 510

Query: Param item: Cc1ccc(C(c2ccccc2)N2CCN(C(=O)CN(c3ccccc3)c3ccccc3)CC2)c(C)c1 (centres unmarked)
Result: 260

Okay, now this molecule:
Query: Look up IC50 for this molecule: CN1CCC(CN2CCN(CC(=O)N(c3ccccc3)c3ccccc3)CC2)CC1
Result: 460

###

Measured IC50 by item
Target: rat brain N-type calcium channel subunits (α1B+α2δ+β1b cDNA subunits) (Rattus norvegicus)
Construct: expressed in transfected cells; host or cells: HEK 293
Assay: N-type calcium channel block, whole cell patch clamp in transfected HEK 293 cells
Assay type: cell-based
Conditions: pulse frequency 0.2 Hz (frequency dependent block); holding potential −80 mV to +10 mV; read-out: IC50 @ 0.2 Hz
Reply with just the number (in nM).

Query: Please provide the recorded IC50 for O=C(CN(c1ccccc1)c1ccccc1)N1CCN(C(c2ccccc2)c2ccc(Cl)cc2Cl)CC1 (centres unmarked) [Compound 3] , tested on rat brain N-type calcium channel subunits (α1B+α2δ+β1b cDNA subunits) (Rattus norvegicus).
Result: 460

Query: Param item: O=C(CN1CCN(C(c2ccccc2)c2cccc(Cl)c2)CC1)N(c1ccccc1)c1ccccc1 (centres unmarked) [Compound 20]
Result: 320

Query: Param item: O=C(CN1CCN(C(c2ccccc2)c2ccc(Cl)cc2)CC1)N(c1ccccc1)c1ccccc1 (centres unmarked) [Compound 19]
Result: 110

###

Target: rat brain N-type calcium channel subunits (α1B+α2δ+β1b cDNA subunits) (Rattus norvegicus, UniProt Q02294)
Construct: expressed in transfected cells; host or cells: HEK 293
Assay: N-type calcium channel block, whole cell patch clamp in transfected HEK 293 cells
Assay type: cell-based
Settings: low frequency stimulation 0.067 Hz (tonic block); holding potential −80 mV to +10 mV; read-out: IC50 @ 0.067 Hz
Measured log10 of IC50 by item
# values: log10(IC50), units nM

Solved entries:
Query: Look up log10 of IC50 for this compound: O=C(CN(c1ccccc1)c1ccccc1)N1CCN(C(c2ccccc2)c2ccc(Cl)cc2Cl)CC1 (stereo not drawn)
Result: 2.74

Query: Param item: O=C(CN1CCN(C(c2ccccc2)c2ccccc2Cl)CC1)N(c1ccccc1)c1ccccc1 (stereo not drawn)
Result: 2.09

Query: Param item: Cc1ccc(C(c2ccccc2)N2CCN(CC(=O)N(c3ccccc3)c3ccccc3)CC2)c(C)c1 (stereo not drawn)
Result: 3.25

Query: Param item: CN1CCC(CN2CCN(CC(=O)N(c3ccccc3)c3ccccc3)CC2)CC1
Result: 2.66

Query: Param item: O=C(CN(c1ccccc1)c1ccccc1)N1CCN(C(c2ccccc2)c2ccccc2Cl)CC1 (stereo not drawn)
Result: 2.52

Further cases:
Query: Look up log10 of IC50 for this compound: O=C(CN1CCN(C(c2ccccc2)c2cccc(Cl)c2Cl)CC1)N(c1ccccc1)c1ccccc1 (stereo not drawn)
Result: 2.48
